- EXPERIMENTAL TARGET: recombinant human SAE enzyme (Homo sapiens (Human), UniProt Q9UBT2)
- Sequence (Q9UBT2 whole entry): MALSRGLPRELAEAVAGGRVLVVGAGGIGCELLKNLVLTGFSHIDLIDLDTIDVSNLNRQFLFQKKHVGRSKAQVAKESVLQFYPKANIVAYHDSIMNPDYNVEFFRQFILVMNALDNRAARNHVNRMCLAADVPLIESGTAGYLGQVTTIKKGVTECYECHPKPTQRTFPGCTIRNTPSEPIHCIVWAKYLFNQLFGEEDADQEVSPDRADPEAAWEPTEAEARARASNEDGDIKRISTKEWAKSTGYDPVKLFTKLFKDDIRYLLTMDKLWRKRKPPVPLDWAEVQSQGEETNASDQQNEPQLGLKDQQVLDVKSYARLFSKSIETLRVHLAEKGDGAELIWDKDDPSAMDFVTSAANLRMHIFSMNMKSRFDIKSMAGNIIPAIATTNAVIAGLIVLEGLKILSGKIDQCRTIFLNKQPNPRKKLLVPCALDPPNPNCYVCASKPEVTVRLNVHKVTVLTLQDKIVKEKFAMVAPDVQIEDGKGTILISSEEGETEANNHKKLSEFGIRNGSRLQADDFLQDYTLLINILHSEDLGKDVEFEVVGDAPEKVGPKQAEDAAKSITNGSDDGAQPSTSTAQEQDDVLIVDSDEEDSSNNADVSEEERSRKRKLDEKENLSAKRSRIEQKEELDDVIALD
- Sequence (Q9UBE0 whole entry partner): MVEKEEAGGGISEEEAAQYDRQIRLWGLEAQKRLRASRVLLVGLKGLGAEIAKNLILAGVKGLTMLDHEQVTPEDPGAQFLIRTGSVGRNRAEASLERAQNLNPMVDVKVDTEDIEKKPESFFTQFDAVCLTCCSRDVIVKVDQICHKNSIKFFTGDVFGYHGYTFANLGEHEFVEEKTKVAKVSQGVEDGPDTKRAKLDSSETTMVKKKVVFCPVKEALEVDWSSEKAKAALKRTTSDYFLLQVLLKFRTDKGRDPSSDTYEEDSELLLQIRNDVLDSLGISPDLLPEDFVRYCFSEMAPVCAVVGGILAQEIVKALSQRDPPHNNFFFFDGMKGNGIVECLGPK
- TEST PROTOCOL: SAE HTRF enzyme assay
- Type: biochemical
- CONDITION PARAMETERS: Concentration 0.111 μM
Give Percent Inhibition for every item shown.

COMPOUND	Percent Inhibition
NS(=O)(=O)OCC1CC(Nc2ncncc2C(=O)c2cc(C(O)(c3cccc(Cl)c3)C3CC3)cs2)CC1O (mixture of isomers) [I-50]	99
C[C@](N)(c1cccc(Br)c1)c1csc(C(=O)c2cncnc2N[C@@H]2C[C@H](COS(N)(=O)=O)[C@@H](O)[C@H]2O)c1 (single isomer, unassigned) [I-27a]	96

// input: 7 compounds below; output: Percent Inhibition for each
1. N[C@H](c1cccc(Br)c1)c1cc(C(=O)c2cncnc2N[C@@H]2C[C@H](COS(N)(=O)=O)[C@@H](O)C2)sc1Cl (single isomer, unassigned) [I-22a]
2. NS(=O)(=O)OC[C@H]1C[C@@H](Nc2ncncc2C(=O)c2cc([C@H](O)c3cccc(Cl)c3)co2)C[C@@H]1O (single isomer, unassigned) [I-42a]
3. CO[C@@H](c1cccc(Br)c1)c1csc(C(=O)c2cncnc2N[C@@H]2C[C@H](COS(N)(=O)=O)[C@@H](O)C2)c1 (single isomer, unassigned) [I-73a]
4. NS(=O)(=O)OC[C@H]1C[C@@H](Nc2ncncc2C(=O)c2cc([C@H](O)c3ccc(Cl)s3)c(Cl)s2)C[C@@H]1O (mixture of isomers) [I-103]
5. NS(=O)(=O)OC[C@H]1C[C@@H](Nc2ncncc2C(=O)c2cc(Cl)c([C@H](O)c3cccc(Cl)c3)s2)C[C@@H]1O (single isomer, unassigned) [I-151b]
6. CC(O)(c1cccc(Cl)c1)c1csc(C(=O)c2cncnc2NC2CC(O)C(COS(N)(=O)=O)C2)c1 (mixture of isomers) [I-5]
7. NS(=O)(=O)OCC1CC(Nc2ncncc2C(=O)c2cc(C(O)c3cccc(Br)c3)cs2)CC1O (mixture of isomers) [I-17]

Reply:
83
97
98
96
93
99
99

// input: 2 compounds below; output: Percent Inhibition for each
1. NS(=O)(=O)OC[C@H]1C[C@@H](Nc2ncncc2C(=O)c2cc([C@H]3NCCc4ccccc43)c(Cl)s2)C[C@@H]1O (single isomer, unassigned) [I-279a]
2. NS(=O)(=O)OC[C@H]1C[C@@H](Nc2ncncc2C(=O)c2cc([C@@H]3OCCc4ccccc43)cs2)C[C@@H]1O.NS(=O)(=O)OC[C@H]1C[C@@H](Nc2ncncc2C(=O)c2cc([C@H]3OCCc4ccccc43)cs2)C[C@@H]1O (mixture of isomers) [I-254]

Reply:
1: 100; 2: 99

// input: 2 compounds below; output: Percent Inhibition for each
1. Cc1sc(C(=O)c2cncnc2N[C@@H]2C[C@H](COS(N)(=O)=O)[C@@H](O)C2)cc1[C@@H]1OCCc2ccc(C3CC3)cc21 (single isomer, unassigned) [I-277a]
2. C[C@](O)(c1cccc(Cl)c1)c1coc(C(=O)c2cncnc2N[C@@H]2C[C@H](COS(N)(=O)=O)[C@@H](O)C2)c1 (single isomer, unassigned) [I-30a]

Reply:
1: 100; 2: 100
